- Tested on: HUVEC/MSC spheroids viability
- procedure-summary: Human HUVEC/MSC cell line growth inhibition [KRAS2];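 further: percent of DMSO vehicle control luminescence so 100% = untreated viability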
- conditions: second compound 1 µM; first compound 0.0316 µM; stronger effect = lower value
observed-property: viability, T/C (%)
Record the value in %, omitting the unit from your answer.

Cn1nccc1Nc1nccc(-c2cc3c(s2)C(C)(C)N(CCN2CCOCC2)C3=O)n1 + CC1OCC2(CCN(c3cnc(Sc4ccnc(N)c4Cl)c(N)n3)CC2)C1N :: 95.9
CCN1CCN(Cc2ccc(Nc3ncc(F)c(-c4cc(F)c5nc(C)n(C(C)C)c5c4)n3)nc2)CC1 + C=CC(=O)N1CCN(c2nc(=O)n(-c3c(C)ccnc3C(C)C)c3nc(-c4c(O)cccc4F)c(F)cc23)C(C)C1 :: 109
CN(C)C/C=C/C(=O)Nc1cc2c(Nc3ccc(F)c(Cl)c3)ncnc2cc1O[C@H]1CCOC1 + CC1OCC2(CCN(c3cnc(Sc4ccnc(N)c4Cl)c(N)n3)CC2)C1N :: 102
Cn1ncnc1[C@H]1c2n[nH]c(=O)c3cc(F)cc(c23)N[C@@H]1c1ccc(F)cc1 + COc1cc2nc(C)nc(NC(C)c3cc(N)cc(C(F)(F)F)c3)c2cc1OC1CCOC1 :: 89.3
CC(C)n1nc(-c2ccc3oc(N)nc3c2)c2c(N)ncnc21 + CNCc1ccccc1-c1csc(C(C)Nc2nc(C)nc3cc(OC)c(OC)cc23)c1 :: 47

Switching to the query record.
Kindly note the recorded viability, T/C for CC(C)NCC(C(=O)N1CCN(c2ncnc3c2C(C)CC3O)CC1)c1ccc(Cl)cc1 (stereo unspecified) + CNCc1ccccc1-c1csc(C(C)Nc2nc(C)nc3cc(OC)c(OC)cc23)c1 , which is 84.6

Where do these numbers come from? They come from PubChem BioAssay AID2060912.
